tested on: SF-268; test: NCI tumour cell line growth inhibition, 48 h
The source made the active and inactive calls. Cut-off read from the data, not from the text of the source: active = GI50 up to about 1.1 µM and inactive = higher.
This section presents molecules with their documented GI50 values.
reportedEndpoint: GI50

>>> df
                                   molecule       measuredresult
0              CC1=NN(C(=O)c2ccncc2)C(=O)C1  > 100 µM (inactive)
1  Cc1cccc(C[C@@]2(SCc3ccccc3)C(C)(C)[C@@H]3CC[C@@]2(C)C3)n1   16.1 µM (inactive)
2  CCCc1cc(O)c2c(C)c3[nH]c4ccc(Cl)cc4c3c(C)c2n1   6.71 µM (inactive)
3  CCOC(=O)C1C(c2ccc(Cl)cc2Cl)NC(c2ccc(C)cc2)C(C(=O)OC)S1(=O)=O (centres undefined)   72.9 µM (inactive)
4  O=C1c2c(Cl)c(Cl)c(Cl)c(Cl)c2C(=O)N1CCN(c1c(Cl)ssc1=O)c1c(Cl)ssc1=O   71.9 µM (inactive)
5  C=C[C@@]1(C)CC[C@@H]2[C@@]3(C1)O[C@H]3CC1[C@](C)(C(=O)OC)CCC[C@@]12C (some centres undefined)   20.2 µM (inactive)
6  CC(C)(C)OC(=O)NC(CO)c1cccc(OCc2ccccc2)c1 (centres undefined)  > 100 µM (inactive)
7  Nc1c(S(=O)(=O)O)cc(Nc2cccc(S(N)(=O)=O)c2)c2c1C(=O)c1ccccc1C2=O  > 100 µM (inactive)
8  COc1ccc(OC)c(NC(=O)C(=O)Nn2c(S)nc3ccccc3c2=O)c1  > 100 µM (inactive)

----------
system: HOP-92; assay: NCI tumour cell line growth inhibition, 48 h
The source made the active and inactive calls. Cut-off read from the data, not from the text of the source: active = GI50 up to about 1.1 µM and inactive = higher. Peptide text beside a SMILES is read from it.
reportedEndpoint: GI50

compound	measuredResult
CCOC(=O)C(C)(C)Oc1ccc(Cl)cc1 [CLOFIBRATE]	177 µM (inactive)
CC(=O)NC(CS)C(=O)NC(CO)C(=O)NC(CO)C(=O)NC(Cc1c[nH]c2ccccc12)C(=O)N1CCCC1C(=O)NC(CO)C(=O)NC(Cc1c[nH]c2ccccc12)C(=O)NC(Cc1c[nH]cn1)C(=O)NC(CO)C(=O)NC(Cc1c[nH]c2ccccc12)C(=O)NCC(=O)NCC(=O)NC(C)C(=O)NC(CCC(N)=O)C(=O)NC(CCCCN)C(=O)NC(C)C(=O)NC(CCCNC(=N)N)C(=O)NC(CCCCN)C(N)=O (stereo not given) (Ac-CSSWPSWHSWGGAQKARK-NH2; configuration not given here)	> 50 µM (inactive)
COc1ccc2cc1Oc1ccc(cc1)C[C@H]1c3cc(c(OC)cc3CCN1C)Oc1c(O)c(OC)cc3c1[C@H](C2)N(C)CC3	7.64 µM (inactive)
Clc1ccc(-c2nc3cc(C45CC6CC(CC(C6)C4)C5)ccc3[nH]2)cc1	17.7 µM (inactive)
COc1ccc(-c2c(C#N)c(N)nc(S)c2C#N)cc1	40.6 µM (inactive)
Nc1ncnc2c1nc(Cl)n2C1OC(CO)C(O)C1O (stereo not given)	9.08 µM (inactive)
COC(CN(C(C)=O)C1CCC2(SCCS2)c2[nH]c3ccccc3c21)OC (stereo not given)	> 100 µM (inactive)
O=C(CCC1CCCCN1)Nc1ccc2c(c1)C(=O)c1ccc(NC(=O)CCN3CCCCC3)cc1C2=O (stereo not given)	2 µM (inactive)
COc1ccccc1NC(=O)NS(=O)(=O)c1ccccc1	> 100 µM (inactive)
CC1(C)OC(=S)N(c2ccccc2)C12C=Cc1cc3ccccc3nc1S2 (stereo not given)	40.3 µM (inactive)
COc1ccc(-c2cc(=O)c3c(OC)cccc3o2)c(OC)c1OC	39.9 µM (inactive)
CCOP(=O)(OCC)/C(C#N)=C/c1c[nH]c2ccccc12	> 100 µM (inactive)
CC(Nc1ccc(Cl)c(Cl)c1)c1ccncc1 (stereo not given)	18.9 µM (inactive)
CC(C)(C)CC(C)(C)c1cc2c(O)c(c1)Cc1cc(C(C)(C)CC(C)(C)C)cc(c1O)Cc1cc(C(C)(C)CC(C)(C)C)cc(c1O)Cc1cc(C(C)(C)CC(C)(C)C)cc(c1O)Cc1cc(C(C)(C)CC(C)(C)C)cc(c1O)Cc1cc(C(C)(C)CC(C)(C)C)cc(c1O)Cc1cc(C(C)(C)CC(C)(C)C)cc(c1O)Cc1cc(C(C)(C)CC(C)(C)C)cc(c1O)C2	> 100 µM (inactive)
C[n+]1c(-c2ccc(NC(=O)c3ccc(C(=O)Nc4ccc(-c5cn6ccccc6[n+]5C)cc4)cc3)cc2)cn2ccccc21	> 100 µM (inactive)

----------
This section presents compounds with their documented GI50 values.
tested on: SN12C; experiment: NCI tumour cell line growth inhibition, 48 h
The source made the active and inactive calls. Cut-off read from the data, not from the text of the source: active = GI50 up to about 1.1 µM and inactive = higher.
reportedEndpoint: GI50

                                   compound       measuredresult
0  CC1=NN(C(=O)CC(=O)Nc2ccccc2)C(=O)C1/N=N/c1ccc(S(N)(=O)=O)cc1 (stereo not given)   41.9 µM (inactive)
1  COc1ccccc1C1=C2C(=O)N(C)C(c3ccccc3OC)=C2C(=O)N1C  > 100 µM (inactive)
2        C(/Cc1ccc2c(c1)OCO2)=N\N=C1NCCCCN1   73.6 µM (inactive)
3  COc1ccc(/C=N/Nc2nc(-c3cc4oc(=O)n(C)c4cc3Cl)cs2)cc1OC   17.9 µM (inactive)
4  C=C/C(C)=C/[C@H](C)C(=O)C[C@H](O)CC1CC(=O)NC(=O)C1   25.5 µM (inactive)
5                 CCNc1ccc2c(c1)Cc1ccccc1-2     64 µM (inactive)
6  CC(=O)CC1CCC(=O)/C=C/C(=O)OC(CC(C)=O)CCC(=O)/C=C/C(=O)O1 (stereo not given)   8.55 µM (inactive)
7   O=C(NC/C(Cl)=C/Cl)Nc1c2ccccc2nc2ccccc12   69.7 µM (inactive)
8  COC(=O)C1=C(O)c2cc(OC)c(OC)cc2C(c2ccc(OC)c(OC)c2)C1 (stereo not given)   51.2 µM (inactive)
9              O=C(CCc1ccccc1CO)NCCc1ccccc1  > 100 µM (inactive)

----------
This section presents molecules with their documented GI50 values.
system: ACHN; assay: NCI tumour cell line growth inhibition, 48 h
The source made the active and inactive calls. No stated cut-off is given here; in the data, active = GI50 up to about 1.1 µM and inactive = higher.

molecule	GI50
O=C1/C(=C\c2cccc(Oc3ccccc3)c2)S(=O)(=O)C(c2ccccc2)N1Cc1ccccc1 (stereo not drawn)	23 µM (inactive)
COc1cccc(CCCNC(=O)Cc2ccccc2CO)c1	> 100 µM (inactive)
CN(C)c1c(C2CC(O)C(CO)O2)c(=O)c1=O (stereo not drawn)	> 100 µM (inactive)
Clc1ccccc1-c1nnc2c(-c3ccccc3)nc3ccccc3n12	> 100 µM (inactive)
Nc1[nH]c(=S)[nH]c(=O)c1/N=N/c1c(Br)cc(S(N)(=O)=O)cc1Br	> 100 µM (inactive)
O=C(/C=C/c1ccc(O)cc1)c1cc(O)cc(O)c1	6.79 µM (inactive)
CC(C)(C)CC(C)(C)c1cc2c(O)c(c1)Cc1cc(C(C)(C)CC(C)(C)C)cc(c1O)Cc1cc(C(C)(C)CC(C)(C)C)cc(c1O)Cc1cc(C(C)(C)CC(C)(C)C)cc(c1O)Cc1cc(C(C)(C)CC(C)(C)C)cc(c1O)Cc1cc(C(C)(C)CC(C)(C)C)cc(c1O)Cc1cc(C(C)(C)CC(C)(C)C)cc(c1O)Cc1cc(C(C)(C)CC(C)(C)C)cc(c1O)C2	> 100 µM (inactive)
CN(C)c1n/c(=N/c2cccc(Cl)c2)ss1	18.4 µM (inactive)

----------
system: SF-268; assay: NCI tumour cell line growth inhibition, 48 h
Calls of active or inactive are those of the source. Cut-off read from the data, not from the text of the source: active = GI50 up to about 1.1 µM and inactive = higher. Peptide text beside a SMILES is read from it. * marks the point of attachment. Boc = CC(C)(C)OC(=O)*
Outcome codes: T = active, F = inactive

compound	testedSystem	classLabel
N#CC(=N)c1ncn(CCO)c1NC(=O)C(F)(F)F	SF-268	F
Cc1ccc2c(c1)-c1c(C#N)c(N)nc(-c3ccc(Cl)cc3)c1CCS2(=O)=O	SF-268	F
Cc1cc(S(=O)(=O)N/C(=C(\C#N)C(=O)c2ccc(Cl)cc2)[n+]2ccc(N(C)C)cc2)c([S-])cc1Cl	SF-268	F
C[C@@H](c1ccccc1)N(CC#N)C1CCC[C@H]1O (stereo partly drawn)	SF-268	F
c1ccc2c(c1)cc1c3[nH]c4ccccc4c3ccn21	SF-268	F
CSCCC(NC(=O)C(CC(C)C)NC(=O)CNC(=O)OC(C)(C)C)C(=O)N(C)C (stereo not drawn) (Boc-Gly-Leu-Met-NMe2; configuration not given here)	SF-268	F
O=C(CC1(O)C(=O)Nc2ccccc21)c1ccccc1O (stereo not drawn)	SF-268	F
CC(C)(C)c1cc2c(OP(c3ccccc3)c3ccccc3)c(c1)Cc1cc(C(C)(C)C)cc(c1OP(c1ccccc1)c1ccccc1)Cc1cc(C(C)(C)C)cc(c1OP(c1ccccc1)c1ccccc1)Cc1cc(C(C)(C)C)cc(c1OP(c1ccccc1)c1ccccc1)C2	SF-268	F
ClCc1nnc2n1-c1ccc(Cl)cc1SC2	SF-268	F
O=C1Cc2c(-c3ccccc3)cc(-c3cccc(Cl)c3)nc2-c2ccccc2N1	SF-268	F
CN(N=O)C(=O)NNC(=O)N(C)N=O	SF-268	F
O=C1C2C3C=C4c5ccccc5N(c5ccccc5)C4([C@@H]2C(=O)N1c1ccc(F)cc1)[C@H]1C(=O)N(c2ccc(F)cc2)C(=O)[C@@H]31 (stereo partly drawn)	SF-268	F
CCOP(=O)(Nc1ccccc1P(=O)(OCC)OCC)OCC	SF-268	F
CC[C@H]1C=CCC[C@@]2(C[C@@H]3CC[C@H]4[C@H](C(=O)OCCCCCCCCCCCCCCCC(=O)N(CCCN)C[C@@H](O)CCN)[C@]5(CCC[C@@H](C)O5)NC(=[N+]34)N2)O1	SF-268	T
Cc1cc2c(c(C)c1O)C(C)(C)CN2C(=O)C(C)(C)C	SF-268	F
COC(=O)C1=C(C)NC2(O)C=CC(=O)C3C(=O)N(c4ccccc4)C(=O)C132 (stereo not drawn)	SF-268	F
C(/Cc1ccc2c(c1)OCO2)=N\N=C1NCCCCN1	SF-268	F
COc1ccc2c3c1C(=O)CCC3CO2 (stereo not drawn)	SF-268	F
